Field: viability at 62.5 µg/mL. Provide a value for each of the compounds that follow.
Tested on: A549 human lung cancer cells
Experiment: cell viability assay (MTT)
Type: cell-based
Details: 62.50 µg/mL, 24 h, read-out: Validity (%) for sample concentrations (µg/mL) 62.50
Reply numerically in %, unit not repeated.

compound O=C1C(Cl)C(C=Cc2ccccc2)N1c1nc(-c2cc(Cl)cc3c2-c2ccc(Cl)cc2C3)cs1 (stereo not shown) , viability at 62.5 µg/mL observed: 78.1

compound CN(C)c1ccc(C2C(Cl)C(=O)N2c2nc(-c3cc(Cl)cc4c3-c3ccc(Cl)cc3C4)cs2)cc1 (stereo not shown) , viability at 62.5 µg/mL observed: 81.7

compound O=C1CSC(c2ccc(Br)cc2)N1c1nc(-c2cc(Cl)cc3c2-c2ccc(Cl)cc2C3)cs1 (stereo not shown) , viability at 62.5 µg/mL observed: 82.2

compound O=C(O)c1ccc(C2SCC(=O)N2c2nc(-c3cc(Cl)cc4c3-c3ccc(Cl)cc3C4)cs2)cc1 (stereo not shown) , viability at 62.5 µg/mL observed: 78.6

---

Test system: A549 human lung cancer cells
Experiment: cell viability assay (MTT)
Format: cell-based
Conditions: 125 µg/mL, 24 h, read-out: Validity (%) for sample concentrations (µg/mL) 125
measurementName: viability at 125 µg/mL (%)
Reply numerically in %, unit not repeated.

molecule COc1cc(C2C(Cl)C(=O)N2c2nc(-c3cc(Cl)cc4c3-c3ccc(Cl)cc3C4)cs2)ccc1O (stereo not shown) [6h] , viability at 125 µg/mL observed: 63.5

molecule COc1cc(C2SCC(=O)N2c2nc(-c3cc(Cl)cc4c3-c3ccc(Cl)cc3C4)cs2)ccc1O (stereo not shown) [5h] , viability at 125 µg/mL observed: 85.7

molecule O=C1C(Cl)C(c2cccs2)N1c1nc(-c2cc(Cl)cc3c2-c2ccc(Cl)cc2C3)cs1 (stereo not shown) [6k] , viability at 125 µg/mL observed: 55.4

molecule O=C1C(Cl)C(c2ccccc2)N1c1nc(-c2cc(Cl)cc3c2-c2ccc(Cl)cc2C3)cs1 (stereo not shown) [6a] , viability at 125 µg/mL observed: 70.3
